Data provenance: ChEMBL document CHEMBL1777746

Experiment summary: Half life in human liver microsomes
Assay type: ADME, Microsome
Can you tell me half-life for the items I'm about to list?

Study these solved cases before continuing.
| Structure string | half-life |
| --- | --- |
| CC[C@@H]1C[C@@H](C(=O)NC[C@@H]2CCCO2)CN(Cc2nc(-c3ccccc3)oc2C)C1 | < 3 min |
| CC[C@@H]1C[C@@H](C(=O)NCC2CCOCC2)CN(Cc2nc(-c3ccccc3)oc2C)C1 | < 3 min |
| COC[C@H]1C[C@@H](C(=O)NC[C@H]2CCCO2)CN(Cc2nc(N3CCOCC3)oc2C)C1 | > 120 min |
| COC[C@H]1C[C@H](C(=O)NCc2cccc(C)n2)CN(Cc2nc(-c3ccccc3)oc2C)C1 | < 3 min |
| CC[C@@H]1C[C@@H](C(=O)NC[C@H]2CCCO2)CN(Cc2nc(-c3ccccc3)oc2C)C1 | < 3 min |
| Cc1cccc(CNC(=O)[C@H]2C[C@H](c3nnc(C)o3)CN(Cc3nc(-c4ccccc4)oc3C)C2)n1 | < 3 min |

Proceed to the following item.
If you can, please state the reported half-life value of Cc1cccc(CNC(=O)[C@H]2C[C@H](c3nc(C)no3)CN(Cc3nc(-c4ccccc4)oc3C)C2)n1 .
< 3 min
